Test: in vivo
Conditions: C57BL/6, mouse, po, 10 mg/kg
Observation Type: Cmax

Data request: Recorded Cmax for Cc1cc2ccccc2n1CCNC(=O)/C=C/c1ccc(OCCO)c(OCCO)c1 , please?
Data returned: 128 ng/mL

---

Assay: physchem
Conditions: PBS buffer, pH 7.4
Rule: T for solubility kinetic not less than 70 µM, F for anything less.

Data request: Reported solubility kinetic at or above 70 µM? Cc1cc(/C=C/C(=O)NCCc2c(C)[nH]c3ccccc23)cc(C)c1F
Data returned: F

Data request: Evaluate COc1ccc(/C=C/C(=O)NCCc2c(C)[nH]c3ccccc23)cc1OC : solubility kinetic at minimum 70 µM?
Data returned: F

Data request: Record Cc1cc(/C=C/C(=O)NCCn2c(C)cc3ccccc32)cc(C)c1F ; criterion: solubility kinetic no lower than 70 µM. Met?
Data returned: F

Data request: In plain terms: is recorded solubility kinetic at least 70 µM for COc1cc(/C=C/C(=O)NCCn2c(C)c(CN(C)C)c3ccccc32)cc(OC)c1OC ?
Data returned: T

Data request: Kindly determine if solubility kinetic recorded for Cc1[nH]c2ccccc2c1CCNC(=O)/C=C/c1ccc(OCCO)c(OCCO)c1 is above or exactly 70 µM.
Data returned: T

Data request: Item O=C(/C=C/c1ccc(OCCO)c(OCCO)c1)NCCn1c(C(F)(F)F)cc2ccccc21 with solubility kinetic of 70 µM or above?
Data returned: F

Data request: Hi, just wondering whether COc1cc(/C=C/C(=O)NCCn2c(C)cc3ccccc32)cc(OC)c1 shows solubility kinetic of 70 µM or higher.
Data returned: F

Data request: Please check the record COc1cc(/C=C/C(=O)NCCc2c(C)[nH]c3c(F)cc(F)cc23)cc(OC)c1OC and state if its solubility kinetic is at or above 70 µM.
Data returned: F

Data request: Answer whether solubility kinetic of COc1cc(/C=C/C(=O)NCCn2c(C(F)(F)F)cc3ccccc32)cc(OC)c1OCCO is greater than or equal to 70 µM.
Data returned: F

Data request: Hi team, for Cc1cc2ccccc2n1CCNC(=O)/C=C/c1ccc(OCCCO)cc1 , is the recorded solubility kinetic at or above 70 µM?
Data returned: F
